- experimental_target: T1, soluble human FcRn (human, UniProt P55899 24-297; P61769 21-119, biotinylated (Sulfo-NHS-LC-Biotin) in the ELISA; amine-coupled to CM5 chip in SPR)
- T1 construct: also called shFcRn; biotinylated shFcRn
- T1 sequence (P55899 24-297 limits assumed, chain 1 of 2): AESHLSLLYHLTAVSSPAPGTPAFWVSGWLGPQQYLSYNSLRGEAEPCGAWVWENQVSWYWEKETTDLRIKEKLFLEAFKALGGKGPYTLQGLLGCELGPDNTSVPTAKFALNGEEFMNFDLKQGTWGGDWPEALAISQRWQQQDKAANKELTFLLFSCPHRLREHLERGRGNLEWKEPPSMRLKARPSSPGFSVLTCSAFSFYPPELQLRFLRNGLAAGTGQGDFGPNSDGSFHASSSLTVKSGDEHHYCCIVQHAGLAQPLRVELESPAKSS
- T1 sequence (P61769 21-119 limits assumed, chain 2 of 2): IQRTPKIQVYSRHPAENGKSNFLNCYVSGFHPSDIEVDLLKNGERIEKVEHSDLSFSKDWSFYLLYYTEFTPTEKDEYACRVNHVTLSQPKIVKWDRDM
- assay_notes: SPR, pH 7.4
Bridge positions count the residues as written; N and C are the ends. Square brackets hold non-standard residues; d marks the D form. Ends that are not written are not given here. NMeL = CN[C@@H](CC(C)C)C(=O)O; Sar = CNCC(=O)O
The entries below are paired with their reported Kd.
observed_property: Kd (µM)

>  <binder>
QRFVTGHFG[dP]WYPANGP-NH2 (N-terminus assumed; SMILES CC(C)[C@H](NC(=O)[C@H](Cc1ccccc1)NC(=O)[C@H](CCCNC(=N)N)NC(=O)[C@@H](N)CCC(N)=O)C(=O)N[C@H](C(=O)NCC(=O)N[C@@H](Cc1c[nH]cn1)C(=O)N[C@@H](Cc1ccccc1)C(=O)NCC(=O)N1CCC[C@@H]1C(=O)N[C@@H](Cc1c[nH]c2ccccc12)C(=O)N[C@@H](Cc1ccc(O)cc1)C(=O)N1CCC[C@H]1C(=O)N[C@@H](C)C(=O)N[C@@H](CC(N)=O)C(=O)NCC(=O)N1CCC[C@H]1C(N)=O)[C@@H](C)O) [Peptide No. 177]

>  <observed_property>
Kd

>  <measurement_unit>
µM

>  <value>
96

$$$$
>  <binder>
QRFCTGHFGGLYPCNGP-NH2 (disulfide 4-14 (inferred)) [SEQ ID NO:1]

>  <observed_property>
Kd

>  <measurement_unit>
µM

>  <value>
30

$$$$
>  <binder>
RFVTGHFG[Sar][NMeL]YPA-NH2 (N-terminus assumed; SMILES CC(C)C[C@@H](C(=O)N[C@@H](Cc1ccc(O)cc1)C(=O)N1CCC[C@H]1C(=O)N[C@@H](C)C(N)=O)N(C)C(=O)CN(C)C(=O)CNC(=O)[C@H](Cc1ccccc1)NC(=O)[C@H](Cc1c[nH]cn1)NC(=O)CNC(=O)[C@@H](NC(=O)[C@@H](NC(=O)[C@H](Cc1ccccc1)NC(=O)[C@@H](N)CCCNC(=N)N)C(C)C)[C@@H](C)O) [Peptide No. 236]

>  <observed_property>
Kd

>  <measurement_unit>
µM

>  <value>
9

$$$$

Value source: patent US20070254831A1
